- Test system: LXRb:RXRa (NR concentration 270 nM, RXRa partner concentration 90 nM)
- assay_explanation: PBM binding z-score (relative to random genomic background probes); higher = stronger binding; sequences stand for … in GC…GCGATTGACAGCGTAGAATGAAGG
Classify as follows. Reported PBM binding z-score greater than or equal to 4: Yes. Reported PBM binding z-score below: No.

sequence_text: CCGAGTAGGTGACGAGGGGGCATTCAGTGCGAAT
category_label: Yes
//
sequence_text: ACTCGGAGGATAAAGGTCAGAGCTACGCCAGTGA
category_label: No
//
sequence_text: CGAACTAGGTCACCAGGACAGTGTAGAGGTTGGA
category_label: No
//
sequence_text: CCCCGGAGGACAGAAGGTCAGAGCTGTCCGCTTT
category_label: No
//
sequence_text: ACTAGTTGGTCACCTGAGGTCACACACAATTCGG
category_label: Yes
//
sequence_text: CCGAGTAGGTCACGAGGGGGCATTCAGTGCGAAT
category_label: Yes
//
sequence_text: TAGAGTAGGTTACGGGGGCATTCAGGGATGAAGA
category_label: Yes
//
sequence_text: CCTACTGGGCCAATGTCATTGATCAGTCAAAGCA
category_label: No
//
sequence_text: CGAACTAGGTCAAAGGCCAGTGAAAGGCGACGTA
category_label: No
//
sequence_text: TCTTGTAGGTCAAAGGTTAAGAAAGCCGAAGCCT
category_label: Yes
//
sequence_text: TAGCCTAGGTCATTCAGGCGCCAGTATAGAAAGC
category_label: No
